# measured-target: Galectin-3 (Homo sapiens) (UniProt P17931)
# Sequence (P17931 whole entry): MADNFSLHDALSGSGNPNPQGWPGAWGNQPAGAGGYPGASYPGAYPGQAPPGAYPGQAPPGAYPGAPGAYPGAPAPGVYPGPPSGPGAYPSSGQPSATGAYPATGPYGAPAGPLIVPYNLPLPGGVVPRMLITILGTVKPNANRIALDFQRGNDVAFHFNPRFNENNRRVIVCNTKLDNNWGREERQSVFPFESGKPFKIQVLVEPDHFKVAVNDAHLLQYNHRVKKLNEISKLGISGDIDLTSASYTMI
# procedure-text: Inhibition of carbohydrate-dependent human galectin3 binding at 10 mM by solid phase assay
Activity calls are given as the source filed them. The calls are words filed in the database; no cut-off is given here. Non-standard residues stand in square brackets, D forms with d. Residues, ends and D or L forms follow the SMILES beside them. *: point of attachment. X1 = OC[C@H]1O[C@@H](O[C@H]2[C@H](O)[C@@H](O)[C@@H](*)O[C@@H]2CO)[C@H](O)[C@@H](O)[C@H]1O; Cha = N[C@@H](CC1CCCCC1)C(=O)O
measurement-kind: inhibition

// worked examples, inhibition included
CC[C@H](C)[C@H](NC(=O)[C@H](CCCNC(=N)N)NC(=O)[C@@H](NC(=O)[C@H](Cc1ccccc1)NC(=O)[C@@H](NC(=O)[C@@H](N)CC(N)=O)[C@@H](C)O[C@H]1O[C@H](CO)[C@@H](O[C@@H]2O[C@H](CO)[C@H](O)[C@H](O)[C@H]2O)[C@H](O)[C@H]1O)C(C)C)C(=O)O (H-NT(X1)FVRI-OH); 44%
O=C(O)[C@H](Cc1ccccc1)NC(=O)[C@H](Cc1ccccc1)NC(=O)[C@H](Cc1ccccc1)NC(=O)[C@H](Cc1ccccc1)NC(=O)[C@H](Cc1ccccc1)NC(=O)[C@@H]1CCCN1 (H-PFFFFF-OH); 76%
CC(C)[C@H](NC(=O)[C@H](Cc1cnc[nH]1)NC(=O)[C@@H](N)Cc1cnc[nH]1)C(=O)N[C@@H](Cc1ccc(O)cc1)C(=O)N[C@@H](Cc1ccc(O)cc1)C(=O)N[C@@H](Cc1cnc[nH]1)C(=O)O (H-HHVYYH-OH); inactive
CSCC[C@H](NC(=O)[C@@H]1CCCN1C(=O)[C@H](CCCNC(=N)N)NC(=O)[C@H](CC1CCCCC1)NC(=O)[C@@H](N)CC1CCCCC1)C(=O)N[C@@H](CCCNC(=N)N)C(=O)O (H-[Cha][Cha]RPMR-OH); 28%
CC(C)[C@H](NC(=O)[C@@H](NC(=O)[C@@H]1CCCN1)[C@@H](C)O[C@H]1O[C@H](CO)[C@@H](O[C@@H]2O[C@H](CO)[C@H](O)[C@H](O)[C@H]2O)[C@H](O)[C@H]1O)C(=O)N[C@@H](C)C(=O)N1CCC[C@H]1C(=O)N[C@@H](CCCNC(=N)N)C(=O)O (H-PT(X1)VAPR-OH); inactive
C[C@H](NC(=O)[C@@H](N)[C@@H](C)O[C@H]1O[C@H](CO)[C@@H](O[C@@H]2O[C@H](CO)[C@H](O)[C@H](O)[C@H]2O)[C@H](O)[C@H]1O)C(=O)N[C@@H](CC(N)=O)C(=O)N[C@@H](Cc1ccc(O)cc1)C(=O)N[C@H](C(=O)N[C@@H](CCCNC(=N)N)C(=O)O)[C@@H](C)O[C@H]1O[C@H](CO)[C@@H](O[C@@H]2O[C@H](CO)[C@H](O)[C@H](O)[C@H]2O)[C@H](O)[C@H]1O; 15%
CC(C)[C@H](NC(=O)[C@@H](N)CCCNC(=N)N)C(=O)N[C@@H](Cc1cnc[nH]1)C(=O)N[C@@H](Cc1ccc(O)cc1)C(=O)N[C@H](C(=O)N[C@@H](CCCNC(=N)N)C(=O)O)[C@@H](C)O[C@H]1O[C@H](CO)[C@@H](O[C@@H]2O[C@H](CO)[C@H](O)[C@H](O)[C@H]2O)[C@H](O)[C@H]1O (H-RVHYT(X1)R-OH); inactive
CSCC[C@H](N)C(=O)N[C@@H](CCCNC(=N)N)C(=O)N[C@H](C(=O)N[C@@H](CCCNC(=N)N)C(=O)N[C@H](C(=O)N[C@@H](CCCNC(=N)N)C(=O)O)[C@@H](C)O[C@H]1O[C@H](CO)[C@@H](O[C@@H]2O[C@H](CO)[C@H](O)[C@H](O)[C@H]2O)[C@H](O)[C@H]1O)[C@@H](C)O[C@H]1O[C@H](CO)[C@@H](O[C@@H]2O[C@H](CO)[C@H](O)[C@H](O)[C@H]2O)[C@H](O)[C@H]1O; inactive

As a next step, examine the molecule that follows.
Entry under test: `OC[C@H]1O[C@@H](O)[C@H](O)[C@@H](O)[C@H]1O` . Its inhibition was inactive

----------
# measured-target: Galectin-1 (Homo sapiens)
# procedure-text: Inhibition of carbohydrate-dependent human galectin1 binding at 10 mM by solid phase assay
Residues, ends and D or L forms follow the SMILES beside them. *: point of attachment. X1 = OC[C@H]1O[C@@H](O[C@H]2[C@H](O)[C@@H](O)[C@@H](*)O[C@@H]2CO)[C@H](O)[C@@H](O)[C@H]1O
Kindly state inhibition for each of the entries shown.

Documented inhibition of `CSCC[C@H](NC(=O)[C@@H](N)[C@@H](C)O[C@H]1O[C@H](CO)[C@@H](O[C@@H]2O[C@H](CO)[C@H](O)[C@H](O)[C@H]2O)[C@H](O)[C@H]1O)C(=O)N[C@@H](CCCNC(=N)N)C(=O)N[C@@H](C)C(=O)N[C@H](C(=O)N[C@@H](CC1CCCCC1)C(=O)O)[C@@H](C)O[C@H]1O[C@H](CO)[C@@H](O[C@@H]2O[C@H](CO)[C@H](O)[C@H](O)[C@H]2O)[C@H](O)[C@H]1O` : 38%

GET /value?item= `CC[C@H](C)[C@H](NC(=O)[C@H](Cc1ccccc1)NC(=O)[C@@H]1CCCN1)C(=O)N[C@@H](CC1CCCCC1)C(=O)N[C@@H](Cc1ccccc1)C(=O)N[C@@H](CCC(N)=O)C(=O)O` &field=inhibition returns 14%

Memo: C[C@H](NC(=O)[C@@H](N)CO)C(=O)N[C@@H](CO)C(=O)N[C@@H](CO)C(=O)N[C@H](C(=O)N[C@@H](CCCNC(=N)N)C(=O)O)[C@@H](C)O[C@H]1O[C@H](CO)[C@@H](O[C@@H]2O[C@H](CO)[C@H](O)[C@H](O)[C@H]2O)[C@H](O)[C@H]1O (H-SASST(X1)R-OH) , reported inhibition: 22%

----------
# measured-target: Galectin-1 (Homo sapiens) (UniProt P09382)
# Sequence (P09382 whole entry): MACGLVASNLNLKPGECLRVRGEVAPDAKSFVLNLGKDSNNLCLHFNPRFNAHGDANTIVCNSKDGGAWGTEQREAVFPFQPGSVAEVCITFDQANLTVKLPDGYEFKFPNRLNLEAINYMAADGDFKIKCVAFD
# procedure-text: Inhibition of carbohydrate-dependent human galectin1 binding at 10 mM by solid phase assay
Calls of active or inactive are those of the source. The calls are words filed in the database; no cut-off is given here. Non-standard residues stand in square brackets, D forms with d. Residues, ends and D or L forms follow the SMILES beside them. *: point of attachment. X1 = OC[C@H]1O[C@@H](O[C@H]2[C@H](O)[C@@H](O)[C@@H](*)O[C@@H]2CO)[C@H](O)[C@@H](O)[C@H]1O; Cha = N[C@@H](CC1CCCCC1)C(=O)O
measurement-kind: inhibition

Sample answers from the record:
CC[C@H](C)[C@H](NC(=O)[C@@H](NC(=O)[C@H](CCCNC(=N)N)NC(=O)[C@@H]1CCCN1C(=O)[C@H](CCCNC(=N)N)NC(=O)[C@@H](N)Cc1ccccc1)[C@@H](C)O[C@H]1O[C@H](CO)[C@@H](O[C@@H]2O[C@H](CO)[C@H](O)[C@H](O)[C@H]2O)[C@H](O)[C@H]1O)C(=O)O (H-FRPRT(X1)I-OH); 3%
CC[C@H](C)[C@H](NC(=O)[C@@H](NC(=O)[C@@H]1CCCN1)[C@@H](C)O)C(=O)N[C@@H](Cc1ccccc1)C(=O)N[C@@H](Cc1ccccc1)C(=O)N[C@@H](Cc1ccccc1)C(=O)O (H-PTIFFF-OH); inactive
CC[C@H](C)[C@H](NC(=O)[C@H](Cc1ccccc1)NC(=O)[C@H](CCCNC(=N)N)NC(=O)[C@H](CCCNC(=N)N)NC(=O)[C@H](CC1CCCCC1)NC(=O)[C@@H](N)[C@@H](C)O[C@H]1O[C@H](CO)[C@@H](O[C@@H]2O[C@H](CO)[C@H](O)[C@H](O)[C@H]2O)[C@H](O)[C@H]1O)C(=O)O (H-T(X1)[Cha]RRFI-OH); inactive
CSCC[C@H](N)C(=O)N[C@@H](Cc1ccccc1)C(=O)N[C@H](C(=O)N[C@@H](CC1CCCCC1)C(=O)N[C@@H](CC1CCCCC1)C(=O)N[C@@H](CCCNC(=N)N)C(=O)O)C(C)C (H-MFV[Cha][Cha]R-OH); 22%
CC[C@H](C)[C@H](NC(=O)[C@@H](NC(=O)[C@H](CCCNC(=N)N)NC(=O)[C@H](CCCNC(=N)N)NC(=O)[C@H](Cc1ccc(O)cc1)NC(=O)[C@H](C)N)[C@@H](C)O[C@H]1O[C@H](CO)[C@@H](O[C@@H]2O[C@H](CO)[C@H](O)[C@H](O)[C@H]2O)[C@H](O)[C@H]1O)C(=O)O (H-AYRRT(X1)I-OH); inactive

Note to self: inhibition recorded for `C[C@@H](O)[C@H](NC(=O)[C@H](Cc1ccc(O)cc1)NC(=O)[C@H](CC1CCCCC1)NC(=O)[C@H](Cc1cnc[nH]1)NC(=O)[C@H](CC1CCCCC1)NC(=O)[C@@H](N)Cc1ccc(O)cc1)C(=O)O` was 9%
